TARGET OF ASSAY: HLA-B*15:01
ASSAY METHOD TEXT: IEDB peptide-MHC binding, purified MHC/direct/fluorescence; filed as Kd, often an IC50 or EC50 that approximates it; bounds were set here for any values at or beyond the usual limits of such assays
DETAILS: source organism: Yersinia pestis Nepal516
pKd: −log10 of the molar value.
QUANTITY NAME: pKd

System HLA-B*15:01. Read-out pKd. Item `ETIFTVLAL` . Report value.
≤ 4.70

----------
TARGET OF ASSAY: HLA-B*07:02
ASSAY METHOD TEXT: IEDB peptide-MHC binding, purified MHC/competitive/radioactivity; filed as Kd, often an IC50 or EC50 that approximates it; bounds were set here for any values at or beyond the usual limits of such assays
DETAILS: source organism: Vaccinia virus Copenhagen
QUANTITY NAME: pKd
Answers are plain numbers, as −log10 of the molar value.

Consider the sequence `NLFDIPLLTV` and give its recorded pKd.
4.77
